Biological target: Amine oxidase [flavin-containing] B (Homo sapiens, UniProt P27338)
Sequence (P27338 whole entry): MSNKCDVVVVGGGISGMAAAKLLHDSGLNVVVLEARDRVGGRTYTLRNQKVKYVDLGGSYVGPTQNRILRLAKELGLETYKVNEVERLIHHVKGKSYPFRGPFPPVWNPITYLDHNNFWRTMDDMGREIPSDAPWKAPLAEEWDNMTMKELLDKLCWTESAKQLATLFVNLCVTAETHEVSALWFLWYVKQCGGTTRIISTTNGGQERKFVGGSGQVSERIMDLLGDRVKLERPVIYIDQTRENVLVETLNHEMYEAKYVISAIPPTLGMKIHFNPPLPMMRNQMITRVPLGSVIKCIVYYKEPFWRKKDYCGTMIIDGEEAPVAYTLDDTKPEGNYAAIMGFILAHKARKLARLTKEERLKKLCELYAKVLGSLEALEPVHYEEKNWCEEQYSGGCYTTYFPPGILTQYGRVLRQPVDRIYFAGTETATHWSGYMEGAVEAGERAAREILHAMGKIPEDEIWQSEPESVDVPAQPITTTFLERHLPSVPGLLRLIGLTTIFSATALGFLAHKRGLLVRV
Assay: biochemical
Description: Inhibition of recombinant human MAO-B expressed in baculovirus infected BT1-TN-5B1-4 cells assessed as inhibition of production of hydrogen peroxide from p-tyramine after 15 mins by Amplex Red assay
ENDPOINT_LABEL: IC50 (nM)

Answered examples (10):
In [3]: df
Out[3]:
                               query_smiles  number
0     O=C(/C=C(O)/C=C/c1ccccc1)c1cc(F)ccc1O    50.4
1       O=C(/C=C/C=C/c1ccccc1)c1cc(Cl)ccc1O    54.8
2  O=C(/C=C(O)/C=C/c1ccc([N+](=O)[O-])cc1)c1ccccc1O    2670
3  COc1ccc(/C=C/C=C/C(=O)c2c(O)cccc2O)cc1OC    1450
4     COc1ccc(/C=C/C=C/C(=O)c2ccccc2O)cc1OC   14600
5   COc1ccc(/C=C/C=C/C(=O)c2cc(Cl)ccc2O)cc1     153
6    COc1ccc(/C=C/C=C/C(=O)c2cc(F)ccc2O)cc1     726
7           O=C(/C=C/C=C/c1ccccc1)c1ccccc1O     106
8  O=C(/C=C(O)/C=C/c1ccc(O)c(O)c1)c1ccccc1O     654
9  COc1ccc(C(=O)/C=C/C=C/c2ccc(Cl)cc2)c(O)c1    4.51

(A) O=C(/C=C/C=C/c1ccccc1)c1cc(F)ccc1O
(B) COc1cc(/C=C/C=C/C(=O)c2ccccc2O)ccc1O
(C) COc1cc(/C=C/C(O)=C/C(=O)c2c(O)cccc2OC)ccc1O
(D) Cc1ccc(/C=C/C(O)=C/C(=O)c2ccccc2O)cc1
List these items ordered by IC50, big to small. Form entry: ranked labels (order as requested). D, C, B, A
(D: 3770 nM, C: 1680 nM, B: 502 nM, A: 75.8 nM)
